Each recorded value in this set is attributed to paper PMC4336329.

Each entry below carries its reported hERG current change (%, negative = inhibition) at 10uM.
Target: human ether-à-go-go-related gene (hERG) potassium channel (human);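 further: peak tail current of the secondary pulse compared with the same well before compound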
Sequence (Q12809 whole entry, looked up): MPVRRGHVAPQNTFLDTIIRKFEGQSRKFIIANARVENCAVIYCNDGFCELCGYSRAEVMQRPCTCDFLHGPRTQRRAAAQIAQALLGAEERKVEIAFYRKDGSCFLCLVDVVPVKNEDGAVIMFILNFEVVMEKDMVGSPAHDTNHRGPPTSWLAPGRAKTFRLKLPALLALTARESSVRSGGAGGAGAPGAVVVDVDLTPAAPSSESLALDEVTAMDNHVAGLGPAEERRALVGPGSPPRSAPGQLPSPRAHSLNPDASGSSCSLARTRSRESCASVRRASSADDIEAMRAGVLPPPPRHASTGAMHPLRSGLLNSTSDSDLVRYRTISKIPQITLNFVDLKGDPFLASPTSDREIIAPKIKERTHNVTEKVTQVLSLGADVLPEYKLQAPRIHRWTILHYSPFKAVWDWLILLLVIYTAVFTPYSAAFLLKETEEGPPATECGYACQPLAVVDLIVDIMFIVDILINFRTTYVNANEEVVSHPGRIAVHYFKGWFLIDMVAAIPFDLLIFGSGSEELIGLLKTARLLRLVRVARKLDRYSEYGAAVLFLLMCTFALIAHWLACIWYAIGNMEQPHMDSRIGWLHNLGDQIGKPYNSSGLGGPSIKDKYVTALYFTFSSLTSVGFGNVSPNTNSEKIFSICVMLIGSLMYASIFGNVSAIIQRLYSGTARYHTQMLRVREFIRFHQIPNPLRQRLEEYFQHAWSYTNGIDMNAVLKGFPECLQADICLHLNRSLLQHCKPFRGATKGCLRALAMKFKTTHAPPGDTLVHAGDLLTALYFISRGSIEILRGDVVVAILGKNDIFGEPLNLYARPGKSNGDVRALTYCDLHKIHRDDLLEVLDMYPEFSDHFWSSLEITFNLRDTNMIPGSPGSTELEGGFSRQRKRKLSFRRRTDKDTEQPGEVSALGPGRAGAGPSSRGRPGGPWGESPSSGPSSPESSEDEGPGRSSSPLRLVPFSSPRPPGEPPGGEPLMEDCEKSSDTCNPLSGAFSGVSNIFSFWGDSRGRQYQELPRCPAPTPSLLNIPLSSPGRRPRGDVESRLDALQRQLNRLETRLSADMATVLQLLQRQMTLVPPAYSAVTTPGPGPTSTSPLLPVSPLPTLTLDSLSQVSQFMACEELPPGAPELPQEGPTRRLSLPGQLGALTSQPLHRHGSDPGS
Test: primary screen, population patch clamp on CHO cells stably expressing hERG; higher = less effect of the substance
About 14,000 (4.5%) of roughly 310,000 compounds showed an effect of 50% or more. Effects have a minus sign here. The sample as a whole holds a higher share of strong results than the screen did.
parameter-measured: hERG current change (%, negative = inhibition) at 10uM (%)

{"compound": "COc1ccc(CN2CCNC(=O)C2CC(=O)NCCN2CCCCC2=O)c(F)c1 (stereo not shown)", "tested-system": "human ether-à-go-go-related gene (hERG) potassium channel (human)", "display-unit": "%", "data-value": 19.1}
{"compound": "Cc1[nH]n2c(=O)cc(C(C)C)nc2c1-c1ccccc1", "tested-system": "human ether-à-go-go-related gene (hERG) potassium channel (human)", "display-unit": "%", "data-value": -12.1}
{"compound": "O=C(O)c1cccnc1Cl", "tested-system": "human ether-à-go-go-related gene (hERG) potassium channel (human)", "display-unit": "%", "data-value": 10.7}
{"compound": "Cc1cccc2sc(NC(=O)CN(C)S(=O)(=O)c3ccc(Br)s3)nc12", "tested-system": "human ether-à-go-go-related gene (hERG) potassium channel (human)", "display-unit": "%", "data-value": -2.49}
{"compound": "CCCCCOP(=O)(OCCCCC)C1(NS(=O)(=O)c2ccccc2)C=CC(=O)c2ccccc21 (stereo not shown)", "tested-system": "human ether-à-go-go-related gene (hERG) potassium channel (human)", "display-unit": "%", "data-value": 9.76}
{"compound": "CCN1C(=O)c2ccccc2Sc2ccc(C(=O)NCCN3CCOCC3)cc21", "tested-system": "human ether-à-go-go-related gene (hERG) potassium channel (human)", "display-unit": "%", "data-value": -5.49}
{"compound": "CCc1cccc(C)c1NC(=O)CN(C)S(=O)(=O)c1ccc(-c2ccc(=O)[nH]n2)s1", "tested-system": "human ether-à-go-go-related gene (hERG) potassium channel (human)", "display-unit": "%", "data-value": -55.3}
{"compound": "CSc1nc2n(n1)C(c1cccc(F)c1)C(C(=O)Nc1ccc(C)cc1C)=C(C)N2 (stereo not shown)", "tested-system": "human ether-à-go-go-related gene (hERG) potassium channel (human)", "display-unit": "%", "data-value": -0.769}
{"compound": "CCN(CC)C(=O)c1cn(-c2cccc(OC)c2)c(=O)c2ccccc12", "tested-system": "human ether-à-go-go-related gene (hERG) potassium channel (human)", "display-unit": "%", "data-value": 9.66}
{"compound": "N=c1occ(C(=O)c2cc(F)ccc2O)cc1C(=O)NC1CCCCC1", "tested-system": "human ether-à-go-go-related gene (hERG) potassium channel (human)", "display-unit": "%", "data-value": 0.995}
